Experiment: Determination of nitrite binding constants to met-Ngb (difference spectra titration)
Settings: met-Ngb 10 μM, 200 mM phosphate buffer, pH 7.4, 25° C.; read-out: Kd (NO2^−)
Protocol: To determine the binding constant of nitrite to metNgb, 10 μM wild type and mutant Ngb in 200 mM phosphate buffer, pH 7.4, were incubated in a cuvette at 25° C. with increasing concentrations of nitrite and the UV—visible spectra were recorded after each increase in nitrite concentration. The constant KD for each protein was determined by interpolation of the absorbance data following procedures in Nicolis et al. (Biochem J 407:89-99, 2007).
Readings of pKd for the listed molecules
To interpret pKd, take it as minus log10 of a concentration measured in moles per litre.

Worked examples follow.
## Task Which value of pKd has been reported for C55A: recombinant human neuroglobin mutant with cysteine 55 replaced by alanine, six-coordinate (protein, UniProt Q9NPG2 1-151, looked up, variant C55A) Neuroglobin: MERPEPELIRQSWRAVSRSPLEHGTVLFARLFALEPDLLPLFQYNCRQFSSPEDALSSPEFLDHIRKVMLVIDAAVTNVEDLSSLEEYLASLGRKHRAVGVKLSSFSTVGESLLYMLEKCLGPAFTPATRAAWSQLYGAVVQAMSRGWDGE in the records?
## Result 1.52

## Task So what does the record say about pKd for WT SH: wild-type human neuroglobin without disulfide bond, cysteines reduced by incubation with 10 mM DTT (protein, UniProt Q9NPG2 1-151, looked up, cysteines reduced with DTT, wild-type human neuroglobin without disulfide bond, cysteines reduced by incubation with 10 mM DTT) Neuroglobin: MERPEPELIRQSWRAVSRSPLEHGTVLFARLFALEPDLLPLFQYNCRQFSSPEDCLSSPEFLDHIRKVMLVIDAAVTNVEDLSSLEEYLASLGRKHRAVGVKLSSFSTVGESLLYMLEKCLGPAFTPATRAAWSQLYGAVVQAMSRGWDGE ?
## Result 1.90

Others:
## Task Can you look up the measured pKd of H64L: stable five-coordinate mutant of human neuroglobin, His64 to Leu substitution, SEQ ID NO: 9 (protein) MERPEPELIRQSWRAVSRSPLEHGTVLFARLFALEPDLLPLFQYNCRQFSSPEDCLSSPEFLDLIRKVMLVIDAAVTNVEDLSSLEEYLASLGRKHRAVGVKLSSFSTVGESLLYMLEKCLGPAFTPATRAAWSQLYGAVVQAMSRGWDGE for me?
## Result 3.77
